- System: Nocardia Asteroides ATCC9970
- experimental_details: In vitro antibacterial activity, agar dilution MIC
- Format: cell-based
- test_settings: Nocardia Asteroides ATCC9970 (organism code VV); BHI agar, 35-37 °C, 20 to 24 hours; unit assumed
- Method: Representative compounds of the present invention were assayed in vitro for antibacterial activity as follows: Twelve petri dishes containing successive aqueous dilutions of the test compound mixed with 10 mL of sterilized Brain Heart infusion (BHI) agar (Difco 0418-01-5) were prepared. Each plate was inoculated with 1:100 (or 1:10 for slow-growing strains, such as Micrococcus and Streptococcus) dilutions of up to 32 different microorganisms, using a Steers replicator block. […]
Exercise: for every item that follows, state its recorded MIC.

The examples below pair each entry with its known result.
molecule | assay_system | MIC
CC[C@H]1OC(=O)[C@H](C)C(=O)[C@H](C)[C@@H](O[C@@H]2O[C@H](C)C[C@H](N(C)Cc3cccc(O)c3)[C@H]2O)[C@](C)(OCC=Cc2cnc3ccccc3c2)C[C@@H](C)C(=O)[C@H](C)[C@H]2NC(=O)O[C@@]21C [Example 22] | Nocardia Asteroides ATCC9970 | 0.2 µg/mL
CC[C@H]1OC(=O)[C@H](C)C(=O)[C@H](C)[C@@H](O[C@@H]2O[C@H](C)C[C@H](NC)[C@H]2O)[C@](C)(OCC=Cc2cnc3ccccc3c2)C[C@@H](C)C(=O)[C@H](C)[C@H]2NC(=O)O[C@@]21C [Example 3] | Nocardia Asteroides ATCC9970 | 3.1 µg/mL
CCCN(C)[C@H]1C[C@@H](C)O[C@@H](O[C@@H]2[C@@H](C)C(=O)[C@@H](C)C(=O)O[C@H](CC)[C@@]3(C)OC(=O)N[C@@H]3[C@@H](C)C(=O)[C@H](C)C[C@@]2(C)OCC=Cc2cnc3ccccc3c2)[C@@H]1O [Example 16] | Nocardia Asteroides ATCC9970 | 0.1 µg/mL
CC[C@H]1OC(=O)[C@H](C)C(=O)[C@H](C)[C@@H](O[C@@H]2O[C@H](C)C[C@H](N(C)C3CC3)[C@H]2O)[C@](C)(OCC=Cc2cnc3ccccc3c2)C[C@@H](C)C(=O)[C@H](C)[C@H]2NC(=O)O[C@@]21C [Example 20] | Nocardia Asteroides ATCC9970 | 3.1 µg/mL

Request: Item C=CCN(C)[C@H]1C[C@@H](C)O[C@@H](O[C@@H]2[C@@H](C)C(=O)[C@@H](C)C(=O)O[C@H](CC)[C@@]3(C)OC(=O)N[C@@H]3[C@@H](C)C(=O)[C@H](C)C[C@@]2(C)OCC=Cc2cnc3ccccc3c2)[C@@H]1O [Example 6] has what recorded MIC?
Result: 0.1 µg/mL
